Kindly supply the reported manual score values for the records listed here.
- experimentalSystem: G protein-activated inward rectifier potassium channel 2 (Homo sapiens) + G protein-activated inward rectifier potassium channel 1 (Homo sapiens) (UniProt P48051+P48549)
- Sequence (P48051 whole entry, looked up): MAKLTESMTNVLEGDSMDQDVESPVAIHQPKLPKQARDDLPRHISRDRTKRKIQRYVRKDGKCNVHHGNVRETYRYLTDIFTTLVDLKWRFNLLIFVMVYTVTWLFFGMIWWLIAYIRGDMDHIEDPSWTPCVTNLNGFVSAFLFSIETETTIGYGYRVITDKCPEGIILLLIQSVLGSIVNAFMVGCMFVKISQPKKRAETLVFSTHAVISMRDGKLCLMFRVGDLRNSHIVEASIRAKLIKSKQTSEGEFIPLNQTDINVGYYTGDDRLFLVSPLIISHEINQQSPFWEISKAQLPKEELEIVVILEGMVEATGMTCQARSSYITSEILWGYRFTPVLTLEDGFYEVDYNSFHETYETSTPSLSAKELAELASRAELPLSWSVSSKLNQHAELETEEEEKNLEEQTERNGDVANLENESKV
- Sequence (P48549 whole entry, looked up): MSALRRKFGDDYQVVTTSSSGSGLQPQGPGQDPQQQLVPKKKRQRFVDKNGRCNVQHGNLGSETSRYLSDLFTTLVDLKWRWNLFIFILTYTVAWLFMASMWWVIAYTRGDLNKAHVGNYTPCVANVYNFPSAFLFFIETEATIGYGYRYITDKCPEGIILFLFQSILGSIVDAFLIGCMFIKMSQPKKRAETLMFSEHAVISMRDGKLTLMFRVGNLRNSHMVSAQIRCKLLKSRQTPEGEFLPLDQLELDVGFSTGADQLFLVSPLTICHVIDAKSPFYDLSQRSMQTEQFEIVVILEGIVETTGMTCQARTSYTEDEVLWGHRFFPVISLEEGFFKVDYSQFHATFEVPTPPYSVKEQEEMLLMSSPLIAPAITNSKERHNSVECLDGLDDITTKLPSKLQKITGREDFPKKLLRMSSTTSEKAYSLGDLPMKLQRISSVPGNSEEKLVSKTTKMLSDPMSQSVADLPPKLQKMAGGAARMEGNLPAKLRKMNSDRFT
- assaySummary: GIRK1/2 thallium flux modulators, retest, confirmation, cell-based, HEK293 rmGlu8/hGIRK1/2, FluoZin-2 (AID 623911)
- testSettings: HEK293 rmGlu8/hGIRK1/2, thallium flux FluoZin-2; actives lie on both sides; glutamate co-added at its EC20 level
Screen size: about 2,100 compounds; about 770 (37%) were called active. This is one part of the list.
The response must contain the number and no unit.

Dear colleague, I am looking for the recorded manual score of the following compound: `O=C(Cc1csc(Nc2nc(=S)[nH]c3ccccc23)n1)NCc1ccccc1Cl`
0

Fill in the blank: the reported manual score of `Cc1ccc(CNC(=O)Cc2csc(Nc3nc(=S)[nH]c4ccccc34)n2)cc1` is ____.
0.5

Could you tell me which manual score is on file for `CCOc1ccccc1N1CCN(S(=O)(=O)c2cccs2)CC1` ?
0

Look up manual score: CCOC(=O)C(C)Sc1nnc(-c2c[nH]c3ccccc23)n1C (stereo not given)
-0.5

So what's the measured manual score for this one? `O=C(Cn1nc(Cc2ccncc2)c2ccccc2c1=O)N1CCN(C(=O)c2ccco2)CC1`
0

What measured manual score goes with O=C1c2ccccc2C(Nc2ccc3c(c2)OCCO3)N1Cc1ccccc1 (stereo not given) ?
-1

Reported manual score for `CC12CC3CC(C)(C1)CC(C(=O)NC(=S)N1CCOCC1)(C3)C2` : what is it?
0.5

Any idea what its manual score is? The compound is `O=C(CN1C(=O)c2cccc3cccc(c23)C1=O)N1CCN(c2ccccn2)CC1`
3

State the recorded manual score for this entry: `CCCCOC(=O)Nc1ccc(C(=O)OCCC)cc1`
0

What value of measured manual score is listed for CCCC1COC(Cn2cncn2)(c2ccc(C)cc2)O1 (stereo not given) ?
0

I have this compound here, `O=c1cc(CN2CCOCC2)nc(C2CC2)[nH]1` , and I need its recorded manual score.
0

Reported manual score, compound `COc1ccccc1C1=Nn2c(nnc2C2CCCCC2)SC1` : ____
-1

Item `COC(=O)c1sccc1NC(=O)CSc1ccccc1NS(=O)(=O)c1cc(Cl)ccc1Cl` has what recorded manual score?
0

Request the reported manual score associated with `Cc1nc(N2CCN(C(=O)COc3ccccc3)CC2)c2c(C)c(C)sc2n1`
-0.5

Quick one: manual score of `Cc1cc(C(=O)CSc2n[nH]c(N)n2)c(C)n1-c1cc(F)ccc1F` ?
0

Tell me the measured manual score of `C=CCN(CC=C)C(=S)NC(=O)c1ccc(-c2ccccc2)cc1` , please.
1

Return reported manual score; argument: CCCCOc1ccc(C(=O)OC2CC(C)N(C)CC2C)cc1 (stereo not given)
-1

Given COC(=O)C1=NN(c2ccccc2)C2C(=O)N(c3ccccc3OC)C(=O)C12 (stereo not given) , state its recorded manual score.
0

Quick one: manual score for `CCOc1ccc(-c2nc(-c3ccncc3)no2)cc1OCC` ?
0.5

Entry `O=C(Oc1ccccc1C(=S)N1CCCCC1)c1cc([N+](=O)[O-])cc([N+](=O)[O-])c1` has what manual score?
-1

Which value of manual score has been reported for `COc1ccc(C2=Nn3c(nnc3C3CCCCC3)SC2)cc1OC` in the records?
0

I have this compound here, CN1C(=O)NC(c2ccccc2)C2=C1CN(Cc1ccccc1)C2=O (stereo not given) , and I need its recorded manual score.
0

Requested read-out: manual score. Entry: `Cc1cc(C)n(-c2ccc(C(=O)OCC(=O)Nc3ccc(Cl)c(S(=O)(=O)N(C)C)c3)cc2)n1`
1

Which manual score value belongs to `CCCN(CCC)C(=S)NC(=O)c1ccc(-c2ccccc2)cc1` ?
1

What value of measured manual score is listed for `Cc1ccc(/C=N\NC(=O)c2cc([N+](=O)[O-])cc([N+](=O)[O-])c2)o1` ?
0

Name the reported manual score value associated with the compound `O=C(N/N=C\c1cc(Br)c(Br)o1)c1cncc(Br)c1`
1

Looking for the measured manual score of `CN(C)S(=O)(=O)c1cc(NC(=O)COC(=O)c2ccc3c(c2)OCO3)ccc1Cl` , can you help?
0.5

Suppose we examine the compound `CCOC(=O)c1c(CNCCN(CC)CC)n(C)c2cc(Br)c(OC)cc12` ; what manual score value has been reported?
-1

Item `Oc1c(Cl)cc(Cl)c2c1NCCC2` has what recorded manual score?
0

Any idea what manual score was measured for `CN(Cc1ccccc1)C(=S)NC(=O)c1ccc(-c2ccccc2)cc1` ?
0

Dear colleague, I am looking for the recorded manual score of the following compound: `S=c1[nH]nc(-c2ccco2)n1/N=C/c1cccc(Cl)c1Cl`
0

What value of measured manual score is listed for `c1cc2c(cc1C1=Nn3c(nnc3C3CCCCC3)SC1)OCO2` ?
0

Fill in: manual score of `CC12CC3CC(C)(C1)CC(C(=O)NC(=S)N1CCCCC1)(C3)C2` is ___
1

So what's the measured manual score for this one? Cc1cccc(S(=O)(=O)NC(Cc2c[nH]c3ccccc23)C(=O)O)c1 (stereo not given)
0

Which measured manual score value corresponds to `O=C(CSc1ccc2ccccc2c1Br)Nc1cccc(S(=O)(=O)NC2=NCCCCC2)c1` ?
0

I am curious: what manual score value has been reported for `N=c1oc2ccc3ccccc3c2cc1-c1nc(-c2ccccc2)cs1` ?
3

Fill in the blank: the reported manual score of `Nn1c(SC/C=C/c2ccccc2)nnc1-c1ccccn1` is ____.
0

Look up manual score for this compound: O=C(COC(=O)C1CC(=O)N(Cc2ccccc2)C1)Nc1ccc2c(c1)OCO2 (stereo not given)
0

Which manual score is listed for `CCc1ccc(C(=O)OCC(=O)Nc2cccc(S(=O)(=O)NC3=NCCCCC3)c2)cc1` ?
1

So what's the measured manual score for this one? O=C(NC(=S)NCC1COc2ccccc2O1)c1ccccc1 (stereo not given)
0

Which manual score value is on record for `O=C(NC(=S)N1CCCCC1)C12CC3CC(CC(C3)C1)C2` ?
0.5

Return reported manual score; argument: `COc1cc2cnncc2cc1OC`
0

Give the measured manual score of `S=c1[nH]nc(-c2ccco2)n1/N=C/c1ccc(Cl)cc1Cl` .
1

For the compound shown here, `Cc1nc2c(-c3ccccc3)c(C)[nH]n2c(=O)c1Cl` , give the reported manual score.
0

Could you tell me which manual score is on file for `Cn1c(-c2ccc(-c3ccccc3)cc2)c[nH]c1=S` ?
0
